Provide the recorded Concentration for the entries that follow.
Target: Chymotrypsinogen A (Bos taurus)
Assay: Compound was tested for inhibitory activity against alpha-chymotrypsin
Expressed in mM, but write only the number.

Q: State its Concentration for this compound: "CC(=O)N[C@H](/C=C/CF)Cc1ccccc1"
A: 13.5

Q: Please give measured Concentration of the following entry: "O=C(CNC(=O)OCc1ccccc1)N[C@H](/C=C/CF)Cc1ccccc1"
A: 1.05

Q: Answer with the recorded Concentration of "O=C(CNC(=O)OCc1ccccc1)NCC(=O)N[C@H](/C=C/CF)Cc1ccccc1" only.
A: 4.4

Q: Complete the entry with Concentration for "CC(=O)N[C@H](/C=C/CCl)Cc1ccccc1"
A: 0.476

###

Provide the recorded k obs / concentration for the entries that follow.
Biological target: Chymotrypsinogen A (Bos taurus)
Experiment: Compound was tested for inhibitory activity towards alpha-chymotrypsin expressed as second order rate constant values
The figure you give is taken to be in M⁻¹ s⁻¹; do not add the unit.

Q: Supply reported k obs / concentration belonging to this compound: "O=C(CNC(=O)OCc1ccccc1)NCC(=O)N[C@H](/C=C/CCl)Cc1ccccc1"
A: 61

Q: Specify reported k obs / concentration for the compound shown: "O=C(CNC(=O)OCc1ccccc1)N[C@H](/C=C/CCl)Cc1ccccc1"
A: 12

Q: Provide measured k obs / concentration value, entry: "CC(=O)N[C@H](/C=C/CBr)Cc1ccccc1"
A: 14

Q: Specify k obs / concentration for "O=C(CNC(=O)OCc1ccccc1)N[C@H](/C=C/CBr)Cc1ccccc1" and stop.
A: 215

Q: Answer with the recorded k obs / concentration for the compound listed here: "O=C(CNC(=O)OCc1ccccc1)NCC(=O)N[C@H](/C=C/CBr)Cc1ccccc1"
A: 1240

###

Provide the recorded log10(Concentration) for the entries that follow.
Target: Chymotrypsinogen A (Bos taurus)
Test: Compound was tested for inhibitory activity against alpha-chymotrypsin
Use the decimal logarithm of Concentration (µM).

Q: Note down log10(Concentration) recorded for "O=C(CNC(=O)OCc1ccccc1)NCC(=O)N[C@H](/C=C/CBr)Cc1ccccc1"
A: 0.85

Q: Please give measured log10(Concentration) of the following entry: "CC(=O)N[C@H](/C=C/CBr)Cc1ccccc1"
A: 2.00

Q: Report log10(Concentration) for "O=C(CNC(=O)OCc1ccccc1)NCC(=O)N[C@H](/C=C/CCl)Cc1ccccc1"
A: 1.23

Q: Answer with the recorded log10(Concentration) of "O=C(CNC(=O)OCc1ccccc1)N[C@H](/C=C/CBr)Cc1ccccc1" only.
A: 1.40

Q: Give log10(Concentration) for the following molecule: "O=C(CNC(=O)OCc1ccccc1)N[C@H](/C=C/CCl)Cc1ccccc1"
A: 1.45
